system: Escherichia coli; assay: Inhibition of Escherichia coli EC302 TEM-10 assessed as minimum concentration of compound needed to reduce the MIC of aztreonam to 4 ug/ml
Recorded metric: MEC (µg/mL)

- Compound: "O=C(O)c1nccc2c1OB(O)[C@H]1C[C@@H]21"
  Recorded metric: "MEC"
  Result value: 5
- Compound: "COc1ccc2c(c1C(=O)O)OB(O)[C@H]1C[C@@H]21"
  Recorded metric: "MEC"
  Result value: 0.6

(a) COc1ccc2c(c1C(=O)O)OB(O)C1CC21 (stereo not drawn)
(b) CSCC(=O)N[C@H]1Cc2ccc(SC)c(C(=O)O)c2OB1O
Req: Parameter metric = MEC. Return the lower-valued option from a and b . Answer by quoting the chosen item's label.
Resp: a
(a: 0.3 µg/mL, b: 1.25 µg/mL)

(I) CSCC(=O)N[C@H]1Cc2ccc(F)c(C(=O)O)c2OB1O
(II) COc1ccc2c(c1C(=O)O)OB(O)C1C2C1(F)F (stereo not drawn)
Req: Task for the reader: decide whether I or II has the larger MEC. Answer by quoting the chosen item's label.
Resp: II
(II: 5 µg/mL, I: 1.25 µg/mL)

---

test system: Pseudomonas aeruginosa; assay: Inhibition of Pseudomonas aeruginosa PAM 1032 KPC-2 assessed as minimum potentiating concentration of compound needed to reduce the MIC of biapenem by 64 fold
Recorded metric: Activity (µg/mL)

(P) COc1ccc2c(c1C(=O)O)OB(O)[C@@H](NC(=O)CSC)C2
(Q) CSCC(=O)N[C@H]1Cc2ccc(F)c(C(=O)O)c2OB1O
Req: Parameter metric = Activity. Return the lower-valued option from P and Q . Answer by quoting the chosen item's label.
Resp: P
(P: 10 µg/mL, Q: 20 µg/mL)

---

target: Beta-lactamase OXA-23 (Acinetobacter baumannii); test: Inhibition of Acinetobacter baumannii AB1054 OXA-23 assessed as minimum concentration of compound needed to reduce the MIC of meropenem to 8 ug/ml
Recorded metric: MEC (µg/mL)

Record excerpt, results attached:
- Molecule: "O=C(O)c1nccc2c1OB(O)[C@@H]1C[C@H]21"
  MEC / µg/mL: 1.25
- Molecule: "COc1ccc2c(c1C(=O)O)OB(O)C(F)=C2"
  MEC / µg/mL: 5
- Molecule: "COc1ccc2c(c1C(=O)O)OB(O)C1CC21 (centres undefined)"
  MEC / µg/mL: 1.25
- Molecule: "COc1ccc2c(c1C(=O)O)OB(O)[C@@H](CCO)C2"
  MEC / µg/mL: 10
- Molecule: "O=C(O)c1cccc2c1OB(O)[C@@H]1C[C@H]21"
  MEC / µg/mL: 10
- Molecule: "O=C(O)c1nccc2c1OB(O)CC2"
  MEC / µg/mL: 2.5
- Molecule: "COc1ccc2c(c1C(=O)O)OB(O)C1CCC21 (centres undefined)"
  MEC / µg/mL: 10
- Molecule: "COc1ccc2c(c1C(=O)O)OB(O)C1(CO)CC21 (centres undefined)"
  MEC / µg/mL: 10
- Molecule: "O=C(O)c1cccc2c1OB(O)[C@H]1C[C@@H]21"
  MEC / µg/mL: 20
- Molecule: "COc1ccc2c(c1C(=O)O)OB(O)CC2"
  MEC / µg/mL: 0.6

(a) O=C(O)c1nccc2c1OB(O)[C@H]1C[C@@H]21
(b) O=C(O)c1c(F)ccc2c1OB(O)CC2
Req: Parameter metric = MEC. Return the lower-valued option from a and b . Answer by quoting the chosen item's label.
Resp: b

---

tested on: Klebsiella pneumoniae; assay: Inhibition of Klebsiella pneumoniae KP1160 IMP-26 assessed as minimum concentration of compound needed to reduce the MIC of meropenem to 1 ug/ml
Recorded metric: MEC (µg/mL)

- Test smiles: "Nc1nnc(S[C@H]2Cc3ccc(OCC(F)F)c(C(=O)O)c3OB2O)s1"
  MEC, µg/mL: 1.25
- Test smiles: "CSCCOc1ccc2c(c1C(=O)O)OB(O)[C@@H](Sc1nncs1)C2"
  MEC, µg/mL: 0.6
- Test smiles: "O=C(O)c1cccc2c1OB(O)[C@@H](Sc1nncs1)C2"
  MEC, µg/mL: 40
- Test smiles: "O=C(O)c1cccc2c1OB(O)[C@@H]1C[C@H]21"
  MEC, µg/mL: 20

(I) O=C(O)c1c(OC(F)F)ccc2c1OB(O)[C@@H](Sc1nncs1)C2
(II) COc1ccc2c(c1C(=O)O)OB(O)[C@@H]1C[C@H]21
Req: Task for the reader: decide whether I or II has the larger MEC. Answer by quoting the chosen item's label.
Resp: I

---

system: Klebsiella pneumoniae; assay: Inhibition of Klebsiella pneumoniae KP1160 IMP-26 assessed as minimum concentration of compound needed to reduce the MIC of meropenem to 1 ug/ml
Recorded metric: MEC (µg/mL)

- Compound: "COc1ccc2c(c1C(=O)O)OB(O)C(F)=C2"
  Result value: 2.5

(1) COc1ccc2c(c1C(=O)O)OB(O)C1CCC21 (configuration not stated)
(2) COc1ccc2c(c1C(=O)O)OB(O)[C@@H](Sc1nncs1)C2
(3) COc1ccc2c(c1C(=O)O)OB(O)C1(CO)CC21 (configuration not stated)
(4) COCCOc1ccc2c(c1C(=O)O)OB(O)[C@@H](Sc1nncs1)C2
Req: Put these in order: smallest MEC first, largest last. Answer by naming the labels in the order asked.
Resp: 4, 3, 2, 1

---

tested on: Escherichia coli; assay: Inhibition of Escherichia coli KP308 SHV-5 assessed as minimum concentration of compound required to reduce the MIC of aztreonam to 4 ug/ml
Recorded metric: MEC (µg/mL)

(A) COc1ccc2c(c1C(=O)O)OB(O)[C@@H]1C[C@H]21
(B) O=C(O)c1c(F)ccc2c1OB(O)[C@H]1C[C@@H]21
(C) COc1ccc2c(c1C(=O)O)OB(O)C1CC21 (configuration not stated)
Req: # ascending order, key=MEC Answer by naming the labels in the order asked.
Resp: A, C, B

---

molecular target: Beta-lactamase (Klebsiella pneumoniae); experiment: Inhibition of Klebsiella pneumoniae KP1004 KPC-2 assessed as minimum concentration of compound needed to reduce the MIC of aztreonam to 4 ug/ml
Recorded metric: MEC (µg/mL)

- Test smiles: "COc1ccc2c(c1C(=O)O)OB(O)[C@@H]1C[C@H]21"
  Reading unit: "µg/mL"
  Result value: 0.16

(A) O=C(O)c1cccc2c1OB(O)[C@@H]1C[C@H]21
(B) CSCC(=O)N[C@H]1Cc2ccc(OCC(=O)O)c(C(=O)O)c2OB1O
(C) COc1ccc2c(c1C(=O)O)OB(O)C=C2
Req: Parameters: sort_field (MEC), sort_dir (desc). Answer by naming the labels in the order asked.
Resp: B, C, A

---

tested on: Enterobacter cloacae; test: Inhibition of Enterobacter cloacae ECL1002 AmpC assessed as minimum concentration of compound needed to reduce the MIC of aztreonam to 4 ug/ml
Recorded metric: MEC (µg/mL)

- Compound: "O=C(O)c1cccc2c1OB(O)[C@H]1C[C@@H]21"
  Result value: 10
- Compound: "CSCC(=O)N[C@H]1Cc2ccc(SC3CNC3)c(C(=O)O)c2OB1O"
  Result value: 10
- Compound: "O=C(O)c1c(F)ccc2c1OB(O)[C@@H](Sc1nncs1)C2"
  Result value: 5

(a) COc1ccc2c(c1C(=O)O)OB(O)[C@@H](Sc1nncs1)C2
(b) CSCC(=O)N[C@H]1Cc2ccc(F)c(C(=O)O)c2OB1O
Req: Parameter metric = MEC. Return the lower-valued option from a and b . Answer by quoting the chosen item's label.
Resp: b

(a) O=C(O)c1c(F)ccc2c1OB(O)[C@H]1C[C@@H]21
(b) COc1ccc2c(c1C(=O)O)OB(O)C1(CC1)C2
(c) O=C(O)c1cccc2c1OB(O)[C@@H](Sc1nncs1)C2
(d) O=C(O)c1nccc2c1OB(O)[C@@H]1C[C@H]21
(e) O=C(O)c1c(F)ccc2c1OB(O)CC2
Req: Put these in order: smallest MEC first, largest last. Answer by naming the labels in the order asked.
Resp: e, a, d, b, c
(e: 0.16 µg/mL, a: 2.5 µg/mL, d: 5 µg/mL, b: 10 µg/mL, c: 20 µg/mL)

(A) CSCC(=O)N[C@H]1Cc2ccc(Sc3nncn3C)c(C(=O)O)c2OB1O
(B) COc1ccc2c(c1C(=O)O)OB(O)[C@H]1C[C@@H]21
(C) C[C@H]1Cc2cccc(C(=O)O)c2OB1O
Req: Put these in order: smallest MEC first, largest last. Answer by naming the labels in the order asked.
Resp: B, A, C
(B: 1.25 µg/mL, A: 5 µg/mL, C: 20 µg/mL)

(1) O=C(O)c1cccc2c1OB(O)[C@@H](OC1CNC1)C2
(2) COc1ccc2c(c1C(=O)O)OB(O)C1CC21 (centres undefined)
Req: Task for the reader: decide whether 1 or 2 has the larger MEC. Answer by quoting the chosen item's label.
Resp: 1
